The measured values listed here are drawn from paper PMC6017655.

# Test system: PqsR (pqsA promoter, PAO1-L mCTX::PpqsA-lux)
# experiment: Whole cell biosensor reporter assay, PAO1-L mCTX::PpqsA-lux
# Format: cell-based, Pseudomonas aeruginosa
# assay-context: Pseudomonas aeruginosa, PAO1, read-out: IC50 PAO1-L, PpqsA-lux reporter; Mean ± SD, n = 3
test-readout: pIC50
pIC50 here: minus log base 10 of the concentration, concentration in moles per litre.

Example results:
[
  {
    "compound": "CC(=O)N1N=C(c2ccccc2)CC1c1cccc(Nc2ccnc3cc(C(F)(F)F)ccc23)c1 (stereo not shown)",
    "test-readout": "pIC50",
    "result-value": 5.30
  },
  {
    "compound": "O=CN1N=C(c2ccccc2)CC1c1cccc(Nc2ccnc3cc(C(F)(F)F)ccc23)c1 (stereo not shown)",
    "test-readout": "pIC50",
    "result-value": 5.30
  },
  {
    "compound": "O=CN1N=C(c2ccccc2)CC1c1cccc(Nc2ccnc3cc(Cl)ccc23)c1 (stereo not shown)",
    "test-readout": "pIC50",
    "result-value": 4.91
  }
]

Test system PqsR (pqsA promoter, PAO1-L mCTX::PpqsA-lux); read-out pIC50; what value for CC(=O)N1N=C(c2ccccc2)CC1c1cccc(Nc2ccnc3cc(Cl)ccc23)c1 (stereo not shown) ?
5.82
